Values from PubChem BioAssay

ASSAY_PROCEDURE: P. aeruginosa biofilm formation inhibitors, primary screen, PAO1 strain, BacTiter-Glo luminescence, LB-PBS (AID 1144)
ASSAY_CONTEXT: 12 h, higher = more signal
Below: a set of entries, each annotated with reported z-score.
Field format: numeric only.

I would be grateful if you could share the reported z-score for COc1ccc(O[C@H]2C=C[C@@H](c3ccccc3)O[C@@H]2COC(=O)N2CCCCC2)cc1 .
0.615

Repeat for the following molecule: COc1ccc(O[C@H]2C=C[C@@H](c3ccccc3)O[C@@H]2CON=C[C@@H](C)[C@H](OCc2ccccc2)C(C)C)cc1
0.531

Lookup C=C(COC)/C(=C/C[C@H](OC(=O)c1ccncc1)c1ccc(CO)o1)c1cc(C(=O)OC)ccc1OC
-1.27

Next record, please: CCN1C(=O)[C@H]2[C@H]3[C@H](O)[C@H](O)CC(=NOCC=C(C)CCC=C(C)C)[C@H]3CC[C@H]2C1=O
-0.805

Do the same for COCCOC(=O)N1C(=O)[C@@]2(c3cc(C#CC4(O)CCCCCC4)ccc31)[C@H](C(=O)N1CCN(c3ncccn3)CC1)[C@H]1C(=O)O[C@H](c3ccccc3)[C@H](c3ccccc3)N1[C@@H]2c1ccc(OCCO)cc1 please
0.905

Also check C[C@H](c1ccccc1)N1C(=O)[C@H]2[C@@H]3C(=CC[C@H]2C1=O)C(=O)[C@H]1O[C@H]1[C@H]3O
1.16

Check CC(CCC(=O)OC[C@H]1O[C@H](C#Cc2ccccc2)C=C[C@@H]1Oc1ccc(C)cc1)=NOC[C@@H](O)[C@H]1O[C@@H]2OC(C)(C)O[C@@H]2[C@H]1O too.
-0.025

Query C=CCC(OC(C)=O)[C@@H]1[C@@H](N(Cc2cc3ccccc3o2)C(=O)Cc2ccc(F)cc2)c2cc(OCCCO)ccc2N1C(=O)Cc1ccc(OC)cc1 (stereo not given in full) next
0.00133

Queued: CCCNC(=O)OC[C@H]1O[C@H](CCON=CC[C@@H]2C=C[C@H](OC(C)=O)[C@@H](COC(C)=O)O2)C=C[C@@H]1Oc1ccc(OC)cc1
0.348

Now try C=CC[C@@H]1C=C[C@H](ON=C[C@@H](OC)[C@H](C)C=CCC(=O)OC)[C@@H](CO)O1 .
0.0583

Next molecule up: CC(CCN1CCc2nc(-c3ccccc3)c(-c3ccccc3)cc2C1)=NOC[C@@H](C)[C@H](OCc1ccccc1)C(C)C
-0.612

Do the same for COCC(=C=CC[C@@H](O)c1ccccc1OCCO)CCO please
-0.118

Next: C[N+](C)(C)CCCCCCNC(=O)[C@@H]1C[C@@H]2C(=O)N3CCC[C@H]3C(=O)N2[C@@H]1c1cccc(OCCO)c1
-1.34

Please answer likewise for CCCC=C(CCC)[C@@H](NC(=O)c1ccc(-c2ccccc2)cc1)c1ccc(C(=O)OC)cc1
0.29

And Cc1cc2c(nc1C)CCCN2CC(C)ON=C1[C@H]2CCn3c(=O)n(-c4ccccc4)c(=O)n3[C@H]2[C@H](O)[C@@H]2O[C@H]12 (stereo not given in full) ?
-0.258

---

ASSAY_PROCEDURE: mitochondrial membrane potential change in A549 cells, profiling panel, cell-based, JC-1 fluorescence, basal, 24 h, 100 nL (AID 1138);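 note: A549 lung adenocarcinoma cells under basal conditions with no added stimulus; test concentration not given here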
ASSAY_CONTEXT: higher = more signal
# maps each entry to its z-score

Consider the worked cases shown below.
[[record]]
structure_smiles = "O=C1[C@H]2[C@H]3[C@H](O)[C@H](O)CC(=NO[C@@H]4O[C@H](CO)[C@@H](O)[C@H](O)[C@H]4O)[C@H]3CC[C@H]2C(=O)N1Cc1ccccc1"
measurement_kind = "z-score"
reported_value = -0.252

[[record]]
structure_smiles = "CC(=O)OC[C@H]1O[C@@H](ON=C[C@@H](C)[C@H](OCc2ccccc2)C(C)C)[C@H](OC(C)=O)[C@@H](OC(C)=O)[C@@H]1OC(C)=O"
measurement_kind = "z-score"
reported_value = 1.32

[[record]]
structure_smiles = "Cc1ccc(S[C@]2(C(=O)NCC(F)(F)F)CC(=O)N(Cc3ccccc3Cl)[C@@H]2c2ccc(CO)cc2I)cc1"
measurement_kind = "z-score"
reported_value = 1.14

[[record]]
structure_smiles = "CCCCCCc1nc(CCCc2cc3c(c(CCCCCC)n2)[Si](C(C)C)(C(C)C)O[C@H]3c2ccccc2)cc2c1[Si](C(C)C)(C(C)C)O[C@H]2c1ccccc1"
measurement_kind = "z-score"
reported_value = 0.669


// returns reported z-score for input C=C(COC)/C(=C/C[C@H](OC(=O)c1ccncc1)c1ccc(CO)o1)c1cc(C(=O)OC)ccc1OC
-0.713

Let us now turn to CCOC(=O)CCN1C(=O)[C@H]2[C@H]3[C@H](O)[C@H](O)CC(=NOCc4ccccc4)[C@@H]3CC[C@H]2C1=O
-0.217

Please answer likewise for CCOC(=O)CCN1C(=O)[C@H]2[C@H]3[C@H](O)[C@H](O)CC(=O)[C@H]3CC[C@H]2C1=O
-0.648

---

# z-score per record follows
ASSAY_PROCEDURE: inhibitors of hydroxyurea-induced Chk1 phosphorylation, primary screen, imaging, HeLa, phospho-Chk1 antibody, percent positive cells (AID 1186)
ASSAY_CONTEXT: hydroxyurea-induced phospho-Chk1 immunofluorescence imaging, higher = more signal
The source made the active and inactive calls. How the calls were made is not given here.

[[record]]
structure_smiles = "CN(C)C(=O)[C@@]1(Cc2ccccc2)N=C(c2ccc(OCCCO)cc2)O[C@H]1c1ccccc1CN=[N+]=[N-]"
measurement_kind = "z-score"
reported_value = "0.264 (inactive)"

[[record]]
structure_smiles = "[N-]=[N+]=Nc1ccccc1C[C@@]1(C(N)=O)N=C(c2ccc(OCCCO)cc2)O[C@@H]1c1ccccc1"
measurement_kind = "z-score"
reported_value = "-0.332 (inactive)"

[[record]]
structure_smiles = "CCOC(=O)C1=CC[C@H]2C(=O)N(CC)C(=O)[C@@H]12"
measurement_kind = "z-score"
reported_value = "0.379 (inactive)"


Which value of z-score has been reported for O=C1O[C@@H](c2ccccc2)[C@@H](c2ccccc2)N2[C@@H](c3ccc(OCCO)cc3)[C@]3(C(=O)Nc4ccc(C#CCCO)cc43)[C@@H](C(=O)N3CCCCCCC3)[C@H]12 in the records?
-0.148 (inactive)

---

ASSAYED_TARGET: Luciferin 4-monooxygenase (Photinus pyralis) (UniProt P08659)
Sequence (P08659 whole entry, looked up): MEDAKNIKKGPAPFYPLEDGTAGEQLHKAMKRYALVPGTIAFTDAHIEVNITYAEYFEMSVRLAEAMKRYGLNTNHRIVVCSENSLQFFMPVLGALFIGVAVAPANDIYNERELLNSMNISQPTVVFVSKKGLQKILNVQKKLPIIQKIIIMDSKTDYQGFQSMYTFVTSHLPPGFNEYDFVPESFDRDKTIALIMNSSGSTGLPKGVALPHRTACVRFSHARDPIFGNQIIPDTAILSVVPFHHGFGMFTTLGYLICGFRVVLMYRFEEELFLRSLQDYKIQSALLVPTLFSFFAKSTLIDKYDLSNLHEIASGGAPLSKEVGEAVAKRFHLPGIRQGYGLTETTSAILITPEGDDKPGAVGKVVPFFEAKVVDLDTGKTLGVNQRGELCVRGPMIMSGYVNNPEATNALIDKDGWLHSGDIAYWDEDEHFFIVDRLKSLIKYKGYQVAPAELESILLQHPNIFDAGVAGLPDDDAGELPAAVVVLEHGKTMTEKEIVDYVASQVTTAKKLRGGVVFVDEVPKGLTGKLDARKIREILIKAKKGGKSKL
ASSAY_PROCEDURE: firefly luciferase enzyme inhibitors, primary screen, biochemical, luminescence, purified enzyme, 2006 set (AID 1141);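 note: cell-free assay with purified firefly luciferase at 100 ng per well in PBS; test concentration not given here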
ASSAY_CONTEXT: SteadyGlo luminescence, 30 min, higher = more signal, called active from +8 up or from −8 down
MEASUREMENT_KIND: z-score
Form rule: numeric answer, no unit written next to it.

Given COCCCNC(=O)[C@@]1(Sc2ccc(C)cc2)CC(=O)N(Cc2ccccc2)[C@@H]1c1ccc(CO)cc1I , state its recorded z-score.
-0.848

---

System: Chordin-like protein 2 (CHRDL2)
ASSAY_PROCEDURE: CHRDL2 small-molecule binders, primary screen, biochemical, small-molecule microarray, 635 nm fluorescence (AID 1126);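 note: printed compound slides probed with Chrdl2 protein at 4 µg/mL for 1 h at 4 C; score merges 667 nm emission intensity with signal to noise over three replicate slides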
ASSAY_CONTEXT: small-molecule microarray binding, fluorescence 635 nm; higher = more signal
Values of composite z-score greater than or equal to -0.002 map to satisfied; values below map to not satisfied.

Worked cases, answers included:
[[record]]
compound = "COCCCNC(=O)[C@@]1(CCS(=O)(=O)c2ccccc2)N=C(c2ccc(OCCCO)cc2)O[C@H]1c1ccccc1"
classification = "not satisfied"

[[record]]
compound = "COc1ccc(O[C@@H]2[C@H](O)CO[C@H]2C=CC#Cc2ccccc2)cc1"
classification = "satisfied"

[[record]]
compound = "CCCNC(=O)[C@@H]1c2ccccc2C(=O)N(c2ccc(C)cn2)[C@H]1c1ccc(CO)cc1"
classification = "not satisfied"

[[record]]
compound = "COc1ccc([Si](C)(C)[C@@H]2[C@@H](CC(=O)N3CCC[C@H]3CO)O[C@]3(C(=O)N(Cc4cccc(N5CCC5=O)c4)c4ccccc43)[C@H]2C)cc1"
classification = "satisfied"

[[record]]
compound = "CC(C)=NOCc1cccc(-c2cc(-c3ccccc3)no2)c1"
classification = "satisfied"


Hi team, for C[C@@H](c1ccccc1)N1C(=O)[C@H]2[C@H]3[C@H](O)[C@H](O)CC(=NNC(=O)OCc4ccccc4)[C@H]3CC[C@H]2C1=O , is the recorded composite z-score at or above -0.002?
satisfied

Thanks! And CN1C(=O)C2C=CC(C(O)c3ccc(Br)cc3)N(N(c3ccccc3)c3ccccc3)C2C1=O (stereo not drawn) ?
not satisfied

Another: CC1CC/C=C\[C@H]2OC34C=CCN(C(C)C)C(=O)[C@H]3N(CCCO)C(=O)[C@@H]4C2C(=O)O1 (stereo partly drawn)
not satisfied

---

ASSAYED_TARGET: Dickkopf-related protein 1 (Homo sapiens) (UniProt O94907)
Sequence (O94907 whole entry, looked up): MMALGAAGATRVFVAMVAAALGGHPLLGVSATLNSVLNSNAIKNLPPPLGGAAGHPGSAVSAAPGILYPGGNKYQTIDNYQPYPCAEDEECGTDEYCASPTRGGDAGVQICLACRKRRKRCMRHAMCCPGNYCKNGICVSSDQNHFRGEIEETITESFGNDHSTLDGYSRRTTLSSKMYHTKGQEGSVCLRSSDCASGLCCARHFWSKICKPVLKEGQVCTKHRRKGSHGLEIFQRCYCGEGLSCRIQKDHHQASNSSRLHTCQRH
ASSAY_PROCEDURE: DKK1 binders on small-molecule microarrays, primary screen, biochemical, small-molecule microarray, 635 nm fluorescence scan (AID 1106);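 note: score merges emission near 667 nm with signal to noise over three replicate slides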
ASSAY_CONTEXT: DKK1 binding, higher = more signal
MEASUREMENT_KIND: composite z-score
Please reply with the value in numeric form only.

Example entries and their recorded answers appear below.
[[record]]
compound = "COC(=O)CC=C[C@@H](C)[C@@H](C=NO[C@H](C)c1cn([C@@H]2COC[C@H]2O)nn1)OC"
reported_value = 0.492

[[record]]
compound = "CC(C)(C)N1C(=O)[C@H]2[C@H]3[C@H](O)[C@H](O)CC(=NOCc4ccccc4)[C@@H]3CC[C@H]2C1=O"
reported_value = 1.59

[[record]]
compound = "COc1ccc([Si](C)(C)[C@@H]2[C@@H](CCO)O[C@]3(C(=O)N(Cc4ccc(NC(C)=O)cc4)c4ccccc43)[C@H]2C)cc1"
reported_value = -0.0026

[[record]]
compound = "CC=CC1=C(CO)[C@H](O)[C@H]2O[C@H]2[C@H]1O"
reported_value = 1.07

[[record]]
compound = "C[C@@H](c1ccccc1)N1C(=O)[C@H]2[C@H]3[C@H](O)[C@H](O)CC(=NOC[C@@H](O)COCc4ccco4)[C@@H]3CC[C@H]2C1=O"
reported_value = -1.03

[[record]]
compound = "CC(C)C[C@@H]1NC(=O)[C@H]2C[C@@H](C(=O)NCCCCCCN(C)C)[C@@H](c3cccc(OCCO)c3)N2C1=O"
reported_value = 1.74


Can you look up composite z-score on Dickkopf-related protein 1 (Homo sapiens) (UniProt O94907) for Cc1ccc(C2CC=C(C(=O)O)CN2S(=O)(=O)c2ccc(C)cc2)cc1 (stereo not drawn) ?
0.0374

Same read-out for CC(C)[C@@H](OCc1ccccc1)[C@H](C)C=NO[C@H](C)c1cn([C@H](CO)Cc2ccccc2)nn1 ?
0.804
